# runDescription: Cytotoxicity against human HepG2 cells assessed as reduction in cell viability after 24 hrs by MTS assay
# Type: toxicity, cell-based
Please note: IC50 at 24 h exactly at 8 µM is FALSE. Only values below 8 µM get TRUE.

Recorded results for 4 compounds are shown here.
compound	className
O=C(Nc1ccc(C(F)(F)F)cc1)c1ccc(Cl)cc1O	TRUE
O=C(Nc1cc(C(F)(F)F)cc(C(F)(F)F)c1)c1cc(Cl)ccc1O [IMD-0354]	FALSE
O=C(Nc1ccc(Br)cc1)c1cc(Cl)ccc1O	TRUE
O=C(Nc1ccc(Br)cc1)c1ccc(Cl)cc1O	TRUE

(Q) API: query returns whether the compound falls strictly under 8 µM in IC50 at 24 h. Query: O=C(Nc1ccc(C(F)(F)F)cc1)c1cc(Br)c(Br)cc1O
(A) TRUE

(Q) API: query returns whether the compound falls strictly under 8 µM in IC50 at 24 h. Query: O=C(Nc1ccc(Cl)c(Cl)c1)c1cc(Cl)c(Cl)cc1O
(A) FALSE
